Where do these numbers come from? They come from ChEMBL document CHEMBL3433997.

Recorded inhibition by entry
# Test target: Glucose transporter (Leishmania mexicana)
# Experiment summary: ST_JUDE_LEISH: Cytotoxicity at 2uM final concentration against transgenic Leishmania Mexicana promastigotes LmGT2 that are glucose transport deficient and complemented with the L. Mexicana glucose transporter 2. Activity is measured by DNA content using SYBR green in vitro
# Format: functional
Quick reminder: number only, in %, skip the unit.

Sample records with inhibition:
O=C(Nc1ccc(OC2CCN(Cc3ccc(F)cc3)CC2)c(Cl)c1)c1ccco1; 3.28
O=C(NC1CCN(CCC(NC(=O)c2ccccc2)c2ccc(Cl)c(Cl)c2)CC1)c1ccc(Cl)cc1 (centres undefined); 1.88
Cc1[nH]c(C)c(-c2ccc(Nc3ccc(C(F)(F)F)cn3)cc2)c(=O)c1Br; 3.17
Fc1ccc2[nH]c(-c3cccc(-c4ccc(CNCc5ccccc5)cc4)c3)nc2c1; 4.2
CCN1CCN(Cc2c(O)ccc3c(=O)c(Oc4cc(C)cc(C)c4)c(C(F)(F)F)oc23)CC1; 54.5

What value of inhibition has been reported for the following molecule? Cc1noc(C)c1CN1Cc2ccccc2OC2(CCN(Cc3c[nH]c4cnccc34)CC2)C1
2.32

Try this molecule next: O=C(Nc1cccc(CN2CCCN(Cc3ccccc3)CC2)c1)c1ccc(-c2ccccc2)cc1
-0.61

Now the molecule Cn1ccnc1CNC(=O)c1ccc(-c2ccc(-c3nc4cc(C(F)(F)F)ccc4[nH]3)s2)cc1
2.03

Cc1cc(Nc2ccc(O)cc2)nc2cc(O)ccc12 ?
3.51

---

Items are presented alongside their recorded inhibition.
# Test target: Glucose transporter (Leishmania mexicana)
# Experiment summary: ST_JUDE_LEISH: Cytotoxicity at 2uM final concentration against transgenic Leishmania Mexicana promastigotes LmGT2 that are glucose transport deficient and complemented with the L. Mexicana glucose transporter 2. Activity is measured by DNA content using SYBR green in vitro
# Assay type: functional
Write the number in % without appending the unit.

CCC[C@@H]([C@@H](CC1CCCCC1)C(=O)N[C@H](C(=O)Nc1nccs1)C(C)(C)SC)N(O)C=O; 8.5
Oc1ccccc1CN1CCC2(CCCN(Cc3ccccc3F)C2)C1 (centres undefined); 1.57
O=C(NC1CCN(c2ccnc3cc(Cl)ccc23)C1)c1ccc(C(F)(F)F)cc1 (centres undefined); 0.57
FC(F)(F)c1ccc2[nH]c(-c3ccc(-c4ccc(CN5CCN(c6cnccn6)CC5)cc4)cc3)nc2c1; 7.09
COc1ccc(CCN(C)CCOc2ccc(NC(=O)c3cc(SC)cc4c(=O)c5ccccc5[nH]c34)cc2)cc1OC; 2.82
O=C(C=Cc1ccc(F)cc1)NC1CCC(CCN2CCc3ccc(-c4cnccn4)cc3CC2)CC1 (centres undefined); 1.49
Cc1cccc2nc(-c3cccc(-c4cccc(NC(=O)C(C)CN5CCN(C)CC5)c4)c3)[nH]c12 (centres undefined); 5.8
Nc1nccc2ccc(-c3ccc4nccn4c3)cc12; 4.92
CCCNC(=O)c1cncc(-c2ccc(CNC3Cc4ccccc4C3)cc2)c1; -1.1
Cn1nc(-c2cccc(CN[C@@H]3CCc4ccc(O)cc43)c2)c2cnc(NC3CCCC3)nc21; 4.68

Query molecule follows.
Please give the measured inhibition for this molecule: COc1ccc(-c2ccc(CN(C)C3CCC(NC(=O)c4cc5ccccc5[nH]4)CC3)cc2)cn1 (centres undefined)
-1.54

---

# Test target: Solute carrier family 2, facilitated glucose transporter member 1 (Homo sapiens)
# Experiment summary: ST_JUDE_LEISH: Cytotoxicity at 2uM final concentration against transgenic Leishmania Mexicana promastigotes LmGLUT1 that are glucose transport deficient and complemented with the human glucose transporter GLUT1. Activity is measured by DNA content using SYBR green in vitro
# Type: functional
Assay readout: inhibition
Show the value, then the unit it is measured in.

Use these answered entries as a reference point.
O=C1CCCN1CCCNCc1ccc(-c2ccc(-c3nc4cc(C(F)(F)F)ccc4[nH]3)cc2)cc1; 3.36%
Cc1cccc(-n2c(Nc3ccc(C)c(Cl)c3)nc3ccc(S(=O)(=O)NC(C)C(C)C)cc32)c1 (stereo not given); 2.71%
CNCCNCc1cccc(-c2cccc(-c3nc4cccc(C)c4[nH]3)c2)c1; 0.8%
COc1cccc(C(=O)NCCc2cccc(Cl)c2)c1Oc1ccccc1; 1.18%
COc1ccc2nccc([C@@H](O)CN3CCC(NC(=O)/C=C/c4cccc(NC(C)=O)c4)CC3)c2c1; 3.71%

What value of measured inhibition is listed for CC(C)(C)c1ccc(S(=O)(=O)Nc2ccccc2N2CCOCC2)cc1 ?
6.54%

Record: COc1ccc(S(=O)(=O)Nc2cc(C)cc(Br)c2OC)cc1N1CCN(C(=O)C(Cl)(Cl)Cl)CC1
0.75%

Request: O=C(NCCOc1ccccc1)[C@H](Cc1ccccc1)Nc1ccnc(NCC2CCCCC2)n1
2.23%

Same again, this time with CC1CCNc2ccc(Cc3cnc(N)nc3N)cc21 (stereo not given)
2.12%

Here is the next compound: FC(F)(F)c1ccc2[nH]c(-c3ccc(-c4ccc(CNCC5CCCO5)cc4)cc3)nc2c1 (stereo not given)
3.49%

Also CC(Cc1ccc(NC(=O)c2ccc(CNCCc3ccccc3)cc2)cc1)NCCc1cccc(Cl)c1 (stereo not given) , if possible.
68.9%

Check Cc1[nH]c(C)c(-c2ccc(Oc3ccccc3)cc2)c(=O)c1Br too.
1.44%

---

# Test target: Hexose transporter 1 (Plasmodium falciparum) (UniProt O97467)
# Experiment summary: ST_JUDE_LEISH: Cytotoxicity at 2uM final concentration against transgenic Leishmania Mexicana promastigotes LmPfHT that are glucose transport deficient and complemented with the Plasmodium falciparum hexose transporter. Activity is measured by DNA content using SYBR green in vitro
# Type: functional
Assay readout: inhibition (%)
Give the number; % is assumed, so skip it.

// solved cases for inhibition follow
CCCN/C=N/c1cc(-c2csc(NC(=N)N)n2)cc([N+](=O)[O-])c1; -0.62
CCc1ccc(C2CCN(CCCCNC(=O)c3ccc(NC(=O)c4ccc(Cl)cc4)cc3)CC2)c(OCCO)c1; 2.33

What measured inhibition goes with COc1cc(Nc2nccc(N3CCC(NC(=O)C4COc5ccccc5O4)C3)n2)cc(OC)c1OC (stereo not given) ?
1.3

---

# Test target: Solute carrier family 2, facilitated glucose transporter member 1 (Homo sapiens)
# Experiment summary: ST_JUDE_LEISH: Cytotoxicity at 2uM final concentration against transgenic Leishmania Mexicana promastigotes LmGLUT1 that are glucose transport deficient and complemented with the human glucose transporter GLUT1. Activity is measured by DNA content using SYBR green in vitro
# Assay type: functional
Assay readout: inhibition (%)
A number alone suffices; assume %.

Examples from the recorded data:
CCC(C)(C)n1c(C)cc2c3c(N)nc(N)nc3ccc21; 71.7
COc1ccc(-c2cc(-c3nc4cc(C(=O)N5CCOCC5)ccc4[nH]3)c(=O)n(C)c2)cc1OC; 2.76
O=C(/C=C/c1ccc(Cl)c(Cl)c1)NCCCCCN1CCCC(CCCNC(=O)Nc2ccc(C(F)(F)F)cc2)C1 (stereo not drawn); 11.3

For the molecule shown here, c1ccc(Oc2ccc(Nc3ccnc4cc(-c5ccc(CNCCN6CCOCC6)o5)ccc34)cc2)cc1 , give the reported inhibition.
2.2

What do you have for CC(C)(C)Oc1ccc(NC(=O)c2ccccc2O)cc1 ?
6.73

Another: CC(C)(C)c1ccc(CN2CCC(NC(=O)c3ccc(-c4cccc(Cl)c4)s3)CC2)cc1
11.2

What about CC1(C)N=C(N)N=C(N)N1CCc1ccccc1 ?
11.6

Same question for Cc1cccc2nc(-c3cccc(-c4cccc(CNCc5ccc(S(C)(=O)=O)cc5)c4)c3)[nH]c12 please.
1.64

Next molecule: COc1ccc2ncc(F)c(CCN3CC(O)C(CNCc4ccccc4)C3)c2n1 (stereo not drawn)
7.65

What about COc1ccc2nccc(C(=O)NC3CCC(CCN4CCc5cc(C#N)ccc5C4)CC3)c2c1 (stereo not drawn) ?
7.23

Now consider CC(=O)Nc1ccc(CCNC(C)Cc2ccc(C(=O)Nc3ccc(CC(C)NCCc4cccc(Cl)c4)cc3)cc2)cc1 (stereo not drawn) and answer again.
2.17

Check Cc1cccc2nc(-c3ccc(-c4ccc(CN5CCCCC5CO)cc4)cc3)[nH]c12 (stereo not drawn) too.
27.8

Field entry: Cc1ccc(Oc2ncccc2C(=O)Nc2cccc3cccnc23)c(C)c1
-2.47

Here is the next molecule: O=C(Nc1ccc(Br)cc1)Nc1ccc(Cn2ncc(N3CCCNCC3)c(Cl)c2=O)cc1
-2.08

And what about the molecule CNC(=O)C1Cc2c([nH]c3cc(Cl)ccc23)C2(CCN(CCc3ccccc3)CC2)N1 (stereo not drawn) ?
0.42

// same read-out, input: CC(C)(C)c1nn(-c2ccc(Cl)cc2)c2[nH]c(=O)c(CNCc3cccs3)cc12
3.3

How about this molecule: CNC(=O)c1cc(S(=O)(=O)N2CCN(c3ccccn3)CC2)cs1
0.24

Next record, please: COc1cc(NCCCNCc2cn(Cc3cc(Br)cc(Br)c3)c3ccccc23)nc2ccccc12
4.87

Here is the next molecule: CCc1ccc(CN2CCCCC(NC(=O)c3cc(-c4ccccc4F)cs3)C2)cc1 (stereo not drawn)
-2.71

Can you handle COc1ccc(NC(=O)Nc2ccc(Nc3nc(C)cc(N(C)C)n3)cc2)cc1 next?
2.57
